- ASSAY_TARGET: (α4)3(β2)2 (LS isoform) α4β2 nAChR α4T139V (Homo sapiens, UniProt P17787+P43681, T139V)
- Sequence (P43681 27-627 T139V): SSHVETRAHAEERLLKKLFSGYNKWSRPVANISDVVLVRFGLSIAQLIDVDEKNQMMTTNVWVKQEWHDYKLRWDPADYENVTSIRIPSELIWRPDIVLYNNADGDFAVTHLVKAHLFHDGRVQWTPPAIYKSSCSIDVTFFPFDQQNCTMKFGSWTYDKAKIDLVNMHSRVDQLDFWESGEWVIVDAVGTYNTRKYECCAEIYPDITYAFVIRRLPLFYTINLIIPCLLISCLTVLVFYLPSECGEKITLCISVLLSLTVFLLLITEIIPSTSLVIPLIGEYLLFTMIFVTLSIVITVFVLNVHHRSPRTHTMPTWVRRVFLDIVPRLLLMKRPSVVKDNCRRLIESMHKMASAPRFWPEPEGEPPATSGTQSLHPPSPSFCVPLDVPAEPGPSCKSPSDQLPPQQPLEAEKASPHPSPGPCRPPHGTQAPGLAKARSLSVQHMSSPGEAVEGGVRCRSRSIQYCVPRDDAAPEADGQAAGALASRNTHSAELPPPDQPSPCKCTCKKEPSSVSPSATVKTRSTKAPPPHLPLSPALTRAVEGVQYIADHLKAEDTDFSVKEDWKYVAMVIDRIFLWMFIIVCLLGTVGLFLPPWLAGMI
- Sequence (P17787 26-502): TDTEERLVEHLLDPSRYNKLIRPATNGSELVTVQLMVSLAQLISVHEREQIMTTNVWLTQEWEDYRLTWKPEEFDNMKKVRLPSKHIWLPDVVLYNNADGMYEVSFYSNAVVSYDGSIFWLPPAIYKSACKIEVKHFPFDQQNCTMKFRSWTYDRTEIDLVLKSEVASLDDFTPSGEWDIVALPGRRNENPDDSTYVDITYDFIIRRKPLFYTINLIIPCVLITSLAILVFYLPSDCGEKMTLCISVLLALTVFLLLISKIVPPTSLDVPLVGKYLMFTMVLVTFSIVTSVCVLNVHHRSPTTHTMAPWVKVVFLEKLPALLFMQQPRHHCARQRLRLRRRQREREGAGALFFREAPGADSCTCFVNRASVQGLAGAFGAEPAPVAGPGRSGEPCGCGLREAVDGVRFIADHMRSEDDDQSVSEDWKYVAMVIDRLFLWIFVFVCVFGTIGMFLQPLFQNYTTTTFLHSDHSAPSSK
- ASSAY: Two-electrode voltage clamp, Xenopus oocytes, LS α4β2 nAChR α4T139V
EXPERIMENTAL_ENDPOINT: EC50 (nM)
Entry rule: numbers only, all in nM.

Incoming: Which value of EC50 has been reported for O=c1cccc2n1C[C@@H]1CNC[C@H]2C1 [Cytisine 3, cytisine] in the records?
Outgoing: 2500

---

- ASSAY_TARGET: human α3β4 nAChR (Homo sapiens, UniProt P30926+P32297)
- Construct: expressed in transfected cells; host or cells: HEK 293 cells, transient transfection with JetPEI, membranes
- Sequence (P32297 32-505): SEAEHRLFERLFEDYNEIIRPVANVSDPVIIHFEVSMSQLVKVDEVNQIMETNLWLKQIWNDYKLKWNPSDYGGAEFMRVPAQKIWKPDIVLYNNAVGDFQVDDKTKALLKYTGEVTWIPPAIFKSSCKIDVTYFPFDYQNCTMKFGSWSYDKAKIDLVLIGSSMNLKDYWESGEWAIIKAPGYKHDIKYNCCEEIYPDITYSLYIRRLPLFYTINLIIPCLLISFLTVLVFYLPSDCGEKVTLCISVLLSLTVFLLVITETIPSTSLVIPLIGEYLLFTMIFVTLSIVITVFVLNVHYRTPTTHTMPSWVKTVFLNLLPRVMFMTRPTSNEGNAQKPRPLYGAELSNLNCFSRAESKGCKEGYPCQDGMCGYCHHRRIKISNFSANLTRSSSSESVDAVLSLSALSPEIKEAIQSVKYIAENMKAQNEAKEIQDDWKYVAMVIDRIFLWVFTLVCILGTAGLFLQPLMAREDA
- Sequence (P30926 22-498): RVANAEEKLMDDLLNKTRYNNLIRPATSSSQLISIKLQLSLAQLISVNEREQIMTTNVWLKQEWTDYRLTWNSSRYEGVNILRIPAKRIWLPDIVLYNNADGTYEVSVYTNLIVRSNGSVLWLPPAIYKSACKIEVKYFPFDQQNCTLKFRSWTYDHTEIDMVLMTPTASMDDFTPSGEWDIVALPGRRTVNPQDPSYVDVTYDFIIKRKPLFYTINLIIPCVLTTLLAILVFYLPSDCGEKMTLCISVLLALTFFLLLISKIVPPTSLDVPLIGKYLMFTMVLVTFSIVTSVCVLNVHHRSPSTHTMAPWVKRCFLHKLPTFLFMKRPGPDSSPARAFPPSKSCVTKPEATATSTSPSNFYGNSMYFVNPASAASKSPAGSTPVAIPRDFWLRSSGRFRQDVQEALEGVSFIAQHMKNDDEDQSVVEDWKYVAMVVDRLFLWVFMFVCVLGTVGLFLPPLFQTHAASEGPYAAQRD
- ASSAY: [3H]epibatidine radioligand binding (saturation and competition), membranes of transfected HEK 293 cells
- SETTINGS: competition with [3H]epibatidine 0.25 nM, Cheng-Prusoff
EXPERIMENTAL_ENDPOINT: pKi
Lab note — pKi values are minus log10 of concentrations in M.

Incoming: What reported pKi corresponds to c1ccc2cc3c(cc2c1)C1CNCC3C1 on human α3β4 nAChR (Homo sapiens, UniProt P30926+P32297)?
Outgoing: 6.57
